# credit: patent US4990531A

Test system: cholinomimetic effects induced by carbachol
Assay: In vivo anticholinergic action: inhibition of carbachol-induced cholinomimetic effects
Parameters: species or system CD1 male mice
Settings: Mus musculus, ip, 0.5 h; i.p.; carbachol 1 mg/kg s.c. 30 min later; read-out: dose able to inhibit, in 50% of the animals, Watering of Eyes
Procedure: The anticholinergic activity of the compounds was determined by evaluating the capacity to inhibit cholinomimetic effects induced by carbachol. Atropine sulphate was used as reference product. CD1 male mice are used weighing 25 to 30 g. […] Each animal was examined 30 minutes after the injection of carbachol to evaluate the presence of diarrhea, salivation and watering of the eyes; the body temperature was also measured using a thermocouple inserted 1.5 cm into the rectum. […]
OBSERVABLE: ED50

Below are worked cases with known answers.
Can you share its ED50? I mean this compound: CCN(CC)c1ccc(S(=O)(=O)N2CCCC2=O)cc1 [Example 2]
> 50 mg/kg

Can you share its ED50? I mean this compound: O=C1CCCN1S(=O)(=O)c1ccc(N2CCCCCC2)cc1 [Example 18]
50 mg/kg

Can you share its ED50? I mean this compound: O=C1CCCN1S(=O)(=O)c1ccc(N2CCCCC2)cc1 [Example 10]
> 50 mg/kg

As a next step, examine the compound that follows.
Can you share its ED50? I mean this compound: CC(C)(C)c1ccc(S(=O)(=O)N2CCCC2=O)cc1 [Example 1]
> 50 mg/kg

====

Target: benzodiazepine receptor
Assay: Affinity for other receptors: benzodiazepines
Conditions: negligible affinity
pIC50: −log10 of the molar value.
Reported pIC50 values for a set of compounds

Quick check: pIC50 on benzodiazepine receptor, item CC(C)(C)c1ccc(S(=O)(=O)N2CCCC2=O)cc1 ?
5.00 to 5.30

As a next step, examine the compound that follows.
Quick check: pIC50 on benzodiazepine receptor, item CCN(CC)c1ccc(S(=O)(=O)N2CCCC2=O)cc1 ?
5.00 to 5.30

====

Molecular target: adrenoreceptor alpha 1
Assay: Affinity for other receptors: adrenoreceptor alpha 1
Settings: negligible affinity
Reported IC50 values for a set of compounds

Can you share its IC50? I mean this compound: CCN(CC)c1ccc(S(=O)(=O)N2CCCC2=O)cc1 [Example 2]
5 to 10 µM

As a next step, examine the compound that follows.
Can you share its IC50? I mean this compound: CC(C)(C)c1ccc(S(=O)(=O)N2CCCC2=O)cc1 [Example 1]
5 to 10 µM

====

Biological target: Muscarine receptor 2
Experiment: Bonding with cerebral receptors: muscarine receptor 2 (3H quinuclidinyl benzylate, rat brain)
Settings: 0.3 nM 3H quinuclidinyl benzylate, 60 min, 25° C., pH 7.5; read-out: Affinity for muscarine receptor M2 (/3H/Quinuclidinyl benzylate), IC50
OBSERVABLE: IC50
Output should be the measured figure followed by the unit it is expressed in.

Can you share its IC50? I mean this compound: CC(C)(C)c1ccc(S(=O)(=O)N2CCCC2=O)cc1
1.3 µM

As a next step, examine the compound that follows.
Can you share its IC50? I mean this compound: CCN(CC)c1ccc(S(=O)(=O)N2CCCC2=O)cc1
1.3 µM

====

Molecular target: GABA receptor
Assay: Affinity for other receptors: GABA
Details: negligible affinity
OBSERVABLE: IC50

Can you share its IC50? I mean this compound: CC(C)(C)c1ccc(S(=O)(=O)N2CCCC2=O)cc1
5 to 10 µM

As a next step, examine the compound that follows.
Can you share its IC50? I mean this compound: CCN(CC)c1ccc(S(=O)(=O)N2CCCC2=O)cc1
5 to 10 µM

====

Here's what we have: IC50 numbers for UniProt:P08588.
Sequence (P08588 whole entry): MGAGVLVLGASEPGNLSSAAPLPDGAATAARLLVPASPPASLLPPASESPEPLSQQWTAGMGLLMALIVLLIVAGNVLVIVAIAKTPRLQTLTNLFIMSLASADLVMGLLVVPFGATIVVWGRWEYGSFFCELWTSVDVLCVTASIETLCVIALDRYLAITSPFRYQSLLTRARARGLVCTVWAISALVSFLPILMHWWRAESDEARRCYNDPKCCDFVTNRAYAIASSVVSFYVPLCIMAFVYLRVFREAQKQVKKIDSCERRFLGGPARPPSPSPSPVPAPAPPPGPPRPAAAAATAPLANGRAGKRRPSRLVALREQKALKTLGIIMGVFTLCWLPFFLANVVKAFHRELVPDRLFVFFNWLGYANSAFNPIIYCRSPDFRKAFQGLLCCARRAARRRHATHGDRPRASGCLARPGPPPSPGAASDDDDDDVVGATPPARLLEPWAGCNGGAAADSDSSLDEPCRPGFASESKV

Quick check: IC50 on UniProt:P08588, item CC(C)(C)c1ccc(S(=O)(=O)N2CCCC2=O)cc1 [Example 1] ?
5 to 10 µM

As a next step, examine the compound that follows.
Quick check: IC50 on UniProt:P08588, item CCN(CC)c1ccc(S(=O)(=O)N2CCCC2=O)cc1 [Example 2] ?
5 to 10 µM

====

Target: adrenoreceptor alpha 2
Experiment: Affinity for other receptors: adrenoreceptor alpha 2
Details: negligible affinity
Reported IC50 values for a set of compounds

Can you share its IC50? I mean this compound: CC(C)(C)c1ccc(S(=O)(=O)N2CCCC2=O)cc1 [Example 1]
5 to 10 µM

As a next step, examine the compound that follows.
Can you share its IC50? I mean this compound: CCN(CC)c1ccc(S(=O)(=O)N2CCCC2=O)cc1 [Example 2]
5 to 10 µM
